- Assay Procedure: Inhibitory concentration against HIV-1 strain IIIB infected T4 lymphocytes
- Format: functional, cell-based
Quantity Kind: pIC50
One number for each entry, as −log10 of the molar value.

Query block: Need pIC50, item `CC(C)[C@H](NC(=O)OCc1ccccc1)C(=O)N[C@@H](Cc1ccccc1)[C@@H](O)[C@H]1NCc2ccc(cc2)OCCOCCOCCNC(=O)[C@H](C(C)C)NC1=O`
Result block: 8.51

---

- Assay Procedure: Area Under Curve was measured by ploting the graph between concentration verses time
- Assay type: ADME
Could you please report measured AUC for the items listed next?
Give bare numbers, in µM·h.

1. COc1ccc(CN[C@@H](C(=O)N[C@@H]2c3ccccc3C[C@H]2O)[C@H](O)[C@H](Cc2ccccc2)NC(=O)[C@@H](NC(=O)OCc2ccccc2)C(C)C)cc1	82.5

Proceeding to the next molecule to report its AUC.
Query block: # input molecule: `CC(C)[C@@H]1NC(=O)[C@@H]([C@H](O)[C@H](Cc2ccccc2)NC(=O)[C@@H](NC(=O)OCc2ccccc2)C(C)(C)C)NCc2ccc(cc2)OCCOCCNC1=O` ; wanted: its AUC
Result block: 4.7

---

- Experimental System: Human immunodeficiency virus type 1 protease (Human immunodeficiency virus 1)
- Assay Procedure: Inhibition of HIV-1 proteinase was assayed in infected MT-4 cells
- Type: cell-based, MT4
Quantity Kind: pKi
Numbers only, as −log10 of the molar value.

Observe how each entry below is paired with its result.
1. CC(C)[C@@H]1NC(=O)[C@@H]([C@H](O)[C@H](Cc2ccccc2)NC(=O)OC(C)(C)C)NCc2cccc(c2)OCCOCCOCCNC1=O	6.68
2. CC(C)[C@@H]1NC(=O)[C@@H]([C@H](O)[C@H](Cc2ccccc2)NC(=O)[C@@H](NC(=O)OCc2ccccc2)C(C)(C)C)NCc2ccc(cc2)OCCOCCNC1=O	8.10

Let us move to another entry and its pKi.
Query block: Consider the compound `CC(C)[C@@H]1NC(=O)[C@@H]([C@H](O)[C@H](Cc2ccccc2)NC(=O)OC(C)(C)C)NCc2ccc(cc2)OCCOCCOCCOCCNC1=O` and give its measured pKi.
Result block: 7.63

---

- Experimental System: Human immunodeficiency virus type 1 protease (Human immunodeficiency virus 1)
- Assay Procedure: Compound was tested for inhibition of HIV-1 protease was assayed in infected MT-4 cells
- Type: cell-based, MT4
I'd appreciate it if you could supply pKi values for the items below.
One number for each entry, as −log10 of the molar value.

1) COc1ccc(CN[C@@H](C(=O)N[C@@H]2c3ccccc3C[C@H]2O)[C@H](O)[C@H](Cc2ccccc2)NC(=O)[C@@H](NC(=O)OCc2ccccc2)C(C)C)cc1	8.02

Query block: # lookup: pKi of `CC(C)[C@@H]1NC(=O)[C@@H]([C@H](O)[C@H](Cc2ccccc2)NC(=O)OC(C)(C)C)NCc2ccc(cc2)OCCCCNC1=O`
Result block: 7.77
